pIC50: −log10 of the molar value.
Literature pIC50 values, system: Dihydroorotate dehydrogenase (quinone), mitochondrial (Homo sapiens).
Sequence (Q02127 whole entry): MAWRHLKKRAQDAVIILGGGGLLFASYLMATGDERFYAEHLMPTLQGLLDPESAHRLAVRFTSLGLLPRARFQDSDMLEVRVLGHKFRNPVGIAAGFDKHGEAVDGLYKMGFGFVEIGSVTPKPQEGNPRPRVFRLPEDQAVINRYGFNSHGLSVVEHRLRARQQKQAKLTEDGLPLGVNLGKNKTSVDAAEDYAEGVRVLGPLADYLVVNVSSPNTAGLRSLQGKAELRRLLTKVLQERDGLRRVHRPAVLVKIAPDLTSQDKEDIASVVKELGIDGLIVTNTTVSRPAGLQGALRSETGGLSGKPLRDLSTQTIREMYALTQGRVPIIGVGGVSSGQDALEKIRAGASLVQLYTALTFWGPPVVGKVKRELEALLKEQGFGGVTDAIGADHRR

| Molecule | Operator | pIC50 |
| --- | --- | --- |
| O=c1cc(-c2ccc(O)c(O)c2)oc2ccccc12 | = | 4.91 |
| Cc1n[nH]c(Nc2ccc(N)cc2)c1C#N | < | 4.30 |
| C/C(O)=C(\C#N)C(=O)Nc1cc(O[C@@H](C)C(F)(F)F)c(C(=O)Nc2c(Cl)cccc2Cl)cc1F | = | 8.24 |
| C/C(O)=C(\C#N)C(=O)Nc1cc(OC(C)C)c(C(=O)Nc2c(F)cccc2Cl)cc1F | = | 7.65 |
| CCn1c(CO)nn(-c2cc(O[C@@H](C)C(F)(F)F)c3c(Oc4c(F)ccc(OCCOC)c4Cl)nccc3c2)c1=O | = | 9.39 |
| CCC(C)Oc1cc(NC(=O)/C(C#N)=C(/C)O)c(F)cc1-c1cccc(OC(F)(F)F)c1 (stereo not given) | = | 7.96 |
| N#Cc1c(Nc2ccc(C(F)(F)F)cc2)n[nH]c1N | < | 4.30 |
| COc1cc(-c2cc(C(=O)O)c3ccccc3n2)ccc1OCC(=O)Nc1cccc(C(F)(F)F)c1 | = | 6.30 |
| O=C(Nc1ccccc1C(=O)O)c1ccc2cc(Br)ccc2c1 | = | 5.08 |
| Brc1ccc(-c2csc(N/N=C/c3ccccc3)n2)cc1 | = | 5.48 |

====

Literature IC50 values, system: Dihydroorotate dehydrogenase (quinone), mitochondrial (Homo sapiens).
Response field class: enum, chosen by comparing IC50 against 0 = under 0.03 µM, 1 = from 0.03 µM up to 10 µM, 2 = 10 µM and over

| Molecular string | Group label |
| --- | --- |
| C/C(O)=C(\C#N)C(=O)Nc1cc(O[C@@H](C)C(F)(F)F)c(C(=O)Nc2c(Cl)cccc2Br)cc1F | 0 |
| O=C(O)c1c(O)c(-c2ccc(Cl)cc2)nc2c(OC(F)(F)F)cccc12 | 2 |
| Cc1ccc(Nc2[nH]nc(C)c2C#N)cc1 | 2 |
| O=C(NC1CC1)c1ccc(-n2cnc3c(Cl)cc(F)cc32)s1 | 1 |
| O=C(O)c1c(O)c(-c2ccc(Cl)cc2)nc2ccc(-c3ccccc3)cc12 | 2 |
| CC/C(O)=C(\C#N)C(=O)Nc1ccc(-c2ccccc2Cl)c(C(=O)OC)c1 | 1 |
| FC(F)(F)c1cc(Nc2ccc3ccccc3c2)n2ncnc2n1 | 2 |
| O=C(O)c1c(O)c(-c2ccc(Cl)cc2)nc2c(Br)cccc12 | 2 |
| CCOc1cccc(-c2cc(F)c(NC(=O)C3=C(C(=O)O)CCC3)c(F)c2)c1 | 0 |
| CCONC(=O)c1c(C)c(-c2ccc(-c3ccccc3F)cc2)nc2ccc(F)cc12 | 0 |
| O=C(O)C1=C(C(=O)Nc2ccc(-c3ccc(Br)cc3)c(Cl)c2)CCC1 | 1 |
| Cc1cc(Nc2cc3ccccc3cc2O)n2ncnc2n1 | 2 |
| CC/C(O)=C(\C#N)C(=O)Nc1ccc(-c2cccc(OC3CCC3)c2)c(C(=O)OC)c1 | 1 |
| O=C(/C=C/c1ccc(F)cc1)Nc1ccccn1 | 2 |
| Cc1n[nH]c(Nc2ccc(F)cc2)c1C#N | 2 |
| CCn1c(CO)nn(-c2nc(O[C@@H](C)C(F)(F)F)c(C(=O)Nc3c(Cl)ccnc3C)cc2F)c1=O | 0 |
